# Assay name: soluble on expression in E. coli; label from the status in PepcDB or PDB records
Metric name: soluble on expression in E. coli

Use the examples below as a reference point.
- Sequence: "MSLNPLSRNVIPIEIHRIVAVGDVHGDAERFRQILEMSGVISLRSNSSKQVVWKPRWGTKEGNFFREYGTRLRTTLIQTGDLIDRGEEDLEVLEMAVSLFNEVRTNYTDDKVVLLMGNHELLNLQGHFHYVHSKSMGGFLTRALRKRAFELDGTFGGFILENFTVAYAVADTLFVHAGIDEHVVSDGIERLNREAKQAIRTKNFGHILLGSTGPLWSRKMFLDASNGRCADTKKALASLGVKRVVVGHTPQRSGRVETFCGGSVIAIDVGMSRWMYGNIAALEITVTSYSSGDGEGHHHHHH"
  soluble on expression in E. coli: "soluble"
- Sequence: "GKVEERWTKTTDGKQMLSWVIYPVNFDANKKYPTLLFCEGGPQSPVSQFWSYRWNFQIMAANDYIIIAPNRRGLPGFGMEWLEQISGDYGGQCMKDYLSAIDDISKEPYVDTNRLGCVGASFGGFSVYWLAGHHDKRFKAFIAHDGIFNMEQQYLETEEMWFANWDMGGAYWDKNNATAQRTFANSPHRFVDKWDTPILCIHGEKDYRILASQGMSAFNAAVLRGVPAELLLYPDENHWVLKPQNGVLWQRTFFSWLDKWLK"
  soluble on expression in E. coli: "not soluble"
- Sequence: "MMRVAIFTDTFTPQVNGVAKTLERLTQYFQKEQIAYSVFAPQHTAEDNFVANVNKMRSIPLTILYPECRFSFPTPRIKRELLSFKPDIIHIATPFNMGLCGLYYAKKLNIPVVGSYHTDFDAYLRYYKIEFLSNMLWNYLKWFHSHMQKNFVPSFETLHQLKNKGFQTLSIWGRGVDCTLFHPAYNTDLFRKKYNITAKYVLSYVGRIAPEKDIDTLQHLIVKTAHTRNDIHWLIAGDGPLATSLREAVPKTNITFTGYLQGGDLAEAYACSNIMVFPSATETFGNVVLESLACGTPVIGANSGGVKNIITDGKTGVLCPPKNEDAFLSSIYFLLQNEEKLEQMGIESSSFAKSKSWDEVFRGLLNQYEEVLQHNASELLALEHHHHHH"
  soluble on expression in E. coli: "soluble"
- Sequence: "MFHGIPATPGIGAPGNKPELYEEVKLYKNAREREKYDNMAELFAVVKTMQALEKAYIKDCVSPSEYTAACSRLLVQYKAAFRQVQGSEISSIDEFCRKFRLDCPLAMERIKEDRPITIKDDKGNLNRCIADVVSLFITVMDKLRLEIRAMDEIQPDLRELMETMHRMSHLPPDFEGRQTVSQWLQTLSGMSASDELDDSQVRQMLFDLESAYNAFNRFLHALEHHHHHH"
  soluble on expression in E. coli: "not soluble"

Exercise: Determine its reported soluble on expression in E. coli: `MSLNDKVTAVRDVWRYEQGEISKVEDRMVTEFPLTVILNGSEFVTLVCTPEHIEELVIGFLASEGVIRFQKEIKRFTIDESLGFVYVDLVHPETLDQKDYTKRVIGSCCGKGRHFYFQQDVKTAKTAVSQIKISPEACLALMKDMQQGSGTFQDTGGVHNAALCDTEKLLLMRTDIGRHNALDKLYGHCLLNGMSVRDKLIVFSGRISSEVLLKAAKIGVSIVISKSAPTELAIQMAEELNITAIGFVRNGSFNVYTHPERIREEGHHHHHH`
Solution: soluble
